Below, each entry is listed alongside its reported residual activity.
- Target Or Test System: Tyrosine-protein kinase ZAP-70 (Homo sapiens)
- Run Conditions: at 1 µM
Supply the numeric figure in %, leaving out any unit text.

>  <Compound>
CC(C)c1nn(-c2c(Cl)cccc2Cl)c2nc(Cc3ccc(OCCO)cc3)[nH]c(=O)c12

>  <Target Or Test System>
Tyrosine-protein kinase ZAP-70 (Homo sapiens)

>  <residual activity / %>
104

$$$$
>  <Compound>
Cn1c2ccccc2c2c3c(c4c5ccccc5n(CCC#N)c4c21)CNC3=O

>  <Target Or Test System>
Tyrosine-protein kinase ZAP-70 (Homo sapiens)

>  <residual activity / %>
81

$$$$

Exam item: Identify the measured residual activity of `COc1cc2ncnc(Nc3cccc(Cl)c3)c2cc1OC` for Tyrosine-protein kinase ZAP-70 (Homo sapiens).
Marked response: 103

Exam item: # value lookup — system Tyrosine-protein kinase ZAP-70 (Homo sapiens), readout residual activity, item `COc1ccc(CNC(=O)Nc2ncc([N+](=O)[O-])s2)cc1`
Marked response: 100

Exam item: Item: `Fc1ccc(-c2nc3n(c2-c2ccncc2)CCS3)cc1` Test system: Tyrosine-protein kinase ZAP-70 (Homo sapiens) Read-out: residual activity Value: ?
Marked response: 127

Sourced from ChEMBL document CHEMBL2218924
